Assay Remarks: MRT (0 to infinity) in Sprague-Dawley rat plasma at 5 mg/kg, iv by UPLC-MS/MS analysis
Format: ADME, organism-based

Structure Smiles	Readout Units	MRT inf
C[C@H]1[C@@H](O[C@@H]2CC[C@@]3(C)[C@@H](C2)C[C@H](O)[C@@H]2[C@@H]3CC[C@]3(C)[C@@H]([C@H](C)CCC(=O)O)CC[C@@H]23)O[C@@H]2O[C@]3(C)CC[C@H]4[C@H](C)CC[C@@H]1[C@@]24OO3	min	42.2

###

Assay Remarks: AUClast in Sprague-Dawley rat plasma at 5 mg/kg, iv by UPLC-MS/MS analysis
Assay type: ADME, organism-based
Parameters: route intravenous, time 0 - last, dose 5 mg/kg
Reported Property: AUC(0-t) (ng·h/mL)

Structure Smiles	Experimental Value
C[C@H]1[C@@H](O[C@@H]2CC[C@@]3(C)[C@@H](C2)C[C@H](O)[C@@H]2[C@@H]3CC[C@]3(C)[C@@H]([C@H](C)CCC(=O)O)CC[C@@H]23)O[C@@H]2O[C@]3(C)CC[C@H]4[C@H](C)CC[C@@H]1[C@@]24OO3	10200
